target.under.test: T1, Human IL-13 with an Fc-tag (human, UniProt P35225 35-146, limits assumed)
T1 construct: Immobilized on CM5 chip (about 5000 RU); also called Interleukin-13; not shown: Fc-tag
protocol.description: SPR, BIAcore 8K plus, human IL-13-Fc immobilized on CM5, peptide as analyte, 25 C
Square brackets hold non-standard residues; d marks the D form.
As shown below, each of these binders has a reported pKd value.
Reminder that pKd means the negative base-10 logarithm of the concentration expressed in mol/L.

>  <binder>
cyclo(VP[dL][dW][dV]LRP) (SMILES CC(C)C[C@@H]1NC(=O)[C@@H](C(C)C)NC(=O)[C@@H](Cc2c[nH]c3ccccc23)NC(=O)[C@@H](CC(C)C)NC(=O)[C@@H]2CCCN2C(=O)[C@H](C(C)C)NC(=O)[C@@H]2CCCN2C(=O)[C@H](CCCNC(=N)N)NC1=O) [Compound 11]

>  <numeric.result>
3.21

$$$$

Field request: pKd | item: cyclo(YRE[dT][dV][dP]) (SMILES CC(C)[C@H]1NC(=O)[C@@H]([C@H](C)O)NC(=O)[C@H](CCC(=O)O)NC(=O)[C@H](CCCNC(=N)N)NC(=O)[C@H](Cc2ccc(O)cc2)NC(=O)[C@H]2CCCN2C1=O) [Compound 6] 4.26

# get_value(readout='pKd', item= cyclo([dR][dF][dV]YEP) (SMILES CC(C)[C@H]1NC(=O)[C@@H](Cc2ccccc2)NC(=O)[C@@H](CCCNC(=N)N)NC(=O)[C@@H]2CCCN2C(=O)[C@H](CCC(=O)O)NC(=O)[C@H](Cc2ccc(O)cc2)NC1=O) [Compound 1] ) 4.80

Entry source: patent US20230399362A1
